// values below are reported pIC50
# tested system: mouse CD38 (Mus musculus (Mouse), UniProt P56528)
# Sequence (P56528 whole entry): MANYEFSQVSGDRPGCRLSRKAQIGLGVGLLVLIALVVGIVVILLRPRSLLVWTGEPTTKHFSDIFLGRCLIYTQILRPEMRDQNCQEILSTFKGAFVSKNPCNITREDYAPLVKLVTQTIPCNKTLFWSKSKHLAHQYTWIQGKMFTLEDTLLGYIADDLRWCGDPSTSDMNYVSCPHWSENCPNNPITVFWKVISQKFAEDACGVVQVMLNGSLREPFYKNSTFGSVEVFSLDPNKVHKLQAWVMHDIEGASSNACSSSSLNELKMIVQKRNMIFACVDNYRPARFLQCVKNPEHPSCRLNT
# test summary: NAD+ cyclase activity assay with mouse recombinant CD38 protein
# Type: biochemical
# conditions used: 0.6 nM mouse CD38, 15.8 μM e-NAD substrate, fluorescence read-out
pIC50: −log10 of the molar value.

Reference set, count: 2
>>> obs_value("Cc1cc(C(=O)NC2CCC(F)(F)CC2)nc(-n2ccnc2)c1 [Compound 8A]")
"8.00 to 9.00"
>>> obs_value("CS(=O)(=O)N1CCC(NC(=O)c2cc(C(F)(F)F)nc(-n3ccnc3)n2)CC1 [Compound 75A]")
"8.00 to 9.00"

Qu. Record request: pIC50 value, item Cc1cc(C(=O)N[C@@H]2CCCN(C)C2)nc(-n2ccnc2)c1 [Compound 59A]
Ans. 7.00 to 8.00

Qu. // returns reported pIC50 for input O=C(N[C@@H]1CCCOC1)c1ccnc(-n2ccnc2)n1 [Compound 80A]
Ans. 8.00 to 9.00

Qu. Entry under review: Cc1cc(C(=O)NC2CC3CCC(C2)O3)nc(-n2ccnc2)c1 (stereo not drawn) [Compound 28A] . Reported pIC50?
Ans. 8.00 to 9.00

Qu. // pIC50 lookup, key: Cc1cc(C(=O)NC2CCN(S(C)(=O)=O)CC2)nc(-n2ccnc2)n1 [Compound 61A]
Ans. > 9.00

---

# tested system: mouse CD38 (Mus musculus (Mouse))
# test summary: NAD+ cyclase activity assay with mouse recombinant CD38 protein
# conditions used: 0.6 nM mouse CD38, 15.8 μM e-NAD substrate, fluorescence read-out
Counter-ions that a name gives are not always drawn.
parameter measured: IC50

The examples below pair each entry with its known result.
>>> obs_value("Cc1cc(C(=O)N[C@H]2CCCNC2)nc(-n2ccnc2)c1 [Compound 48A, dihydrochloride]")
"0.01 to 0.1 µM"
>>> obs_value("Cc1ccc(-n2ccnc2)nc1C(=O)N[C@@H]1CCCOC1 [Compound 81A]")
"0.01 to 0.1 µM"
>>> obs_value("Cc1cc(C(=O)NC2CCC2)nc(-n2ccnc2)c1 [Compound 12A]")
"0.001 to 0.01 µM"

Qu. For the compound Cc1cc(C(=O)NC2CCS(=O)(=O)C2)nc(-n2ccnc2)c1 (stereo not drawn) [Compound 23A] , what IC50 is on record?
Ans. 0.001 to 0.01 µM

Qu. Please look up its IC50: COCCC(=O)N1CCC(NC(=O)c2cc(C)cc(-n3ccnc3)n2)CC1 [Compound 20A]
Ans. 0.001 to 0.01 µM

Qu. Need IC50 of Cc1cc(C(=O)N[C@H]2CCCNC2=O)nc(-n2ccnc2)c1 [Compound 60A] , thanks.
Ans. 0.001 to 0.01 µM

Qu. Give the measured IC50 of Cc1cc(C(=O)N[C@H]2CCN(S(C)(=O)=O)C2)nc(-n2ccnc2)c1 [Compound 46A] .
Ans. 0.001 to 0.01 µM

Qu. Would you mind telling me what IC50 value was observed for Cc1cc(C(=O)N[C@@H]2CCNC2)nc(-n2ccnc2)c1 [Compound 52A, dihydrochloride] ?
Ans. > 0.1 µM

---

# tested system: UniProt P28907
# Sequence (P28907 whole entry): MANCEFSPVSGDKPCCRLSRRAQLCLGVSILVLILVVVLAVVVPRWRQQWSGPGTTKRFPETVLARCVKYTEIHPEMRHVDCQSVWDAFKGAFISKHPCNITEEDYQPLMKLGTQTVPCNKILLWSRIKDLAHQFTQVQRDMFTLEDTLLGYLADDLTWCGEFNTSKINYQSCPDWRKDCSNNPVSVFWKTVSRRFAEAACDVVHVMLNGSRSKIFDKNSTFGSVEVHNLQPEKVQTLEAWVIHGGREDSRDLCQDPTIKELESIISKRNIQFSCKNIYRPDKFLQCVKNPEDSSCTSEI
# test summary: NAD+ cyclase activity assay with human recombinant CD38 protein
# Assay type: biochemical
# conditions used: 1.9 nM human CD38, 15.8 μM e-NAD substrate, fluorescence read-out
Below: a set of entries, each annotated with reported IC50.

# annotated cases, reported IC50 shown
>>> obs_value("Cc1cc(C(=O)NC2CCN(C(=O)CN3CCOCC3)CC2)nc(-n2ccnc2)c1 [Compound 19A]")
"30 to 100 nM"
>>> obs_value("CS(=O)(=O)N1CCC(NC(=O)c2cccc(-n3ccnc3)n2)CC1 [Compound 16A]")
"30 to 100 nM"
>>> obs_value("Cc1cc(C(=O)N[C@@H]2CCOC2)nc(-n2ccnc2)c1 [Compound 42A]")
"30 to 100 nM"
>>> obs_value("Cc1cc(C(=O)NC2CCCOC2)nc(-n2ccnc2)c1 (stereo not drawn)")
"< 30 nM"
>>> obs_value("Cc1cc(C(=O)NC2CCN(S(=O)(=O)C3CCOC3)CC2)nc(-n2ccnc2)c1 (stereo not drawn) [Compound 72A]")
"< 30 nM"

Qu. Hi! What's the reported IC50 for Cc1cc(C(=O)N[C@@H]2CCCN(S(C)(=O)=O)C2)nc(-n2ccnc2)c1 [Compound 54A] on UniProt P28907?
Ans. 30 to 100 nM

Qu. Find the measured IC50: item Cc1cc(C(=O)NC2CCN(C(=O)N(C)C)CC2)nc(-n2ccnc2)c1 [Compound 21A] , target or system UniProt P28907.
Ans. 30 to 100 nM

Qu. Observed IC50 on UniProt P28907 for "Cc1cc(C(=O)NC2CCN(S(=O)(=O)C3CC3)CC2)nc(-n2ccnc2)c1" , please.
Ans. < 30 nM

Qu. What reported IC50 corresponds to Cc1cc(C(=O)NC2COCC(F)(F)C2)nc(-n2ccnc2)c1 (stereo in doubt) [Compound 67A] on UniProt P28907?
Ans. 100 to 1000 nM
